System: Trypanosoma cruzi
TEST_DETAILS: Trypanosoma cruzi phosphomannomutase and mannose-1-phosphate guanylyltransferase assay
Type: functional
Design: scale not given: direction of the effect not stated beside the values
REPORTED_CONDITIONS: 10 µM
RESULT_TYPE: Percent Effect (%)
Your answer is read as %, so omit the unit and give the number.

Just so you know, measured Percent Effect for OCCn1cc(CN2CCN(CCOCC(F)(F)F)CC2)cn1 came out at -8.63

Just so you know, measured Percent Effect for Cc1cnn(CCNCc2ccc(C#N)cc2F)c1 came out at -2.51

Just so you know, measured Percent Effect for CCCN(CC(=O)NC)C(=O)c1ccc(-c2ccsc2)nc1C came out at 4.76

Just so you know, measured Percent Effect for O=C(CSc1ccc2c(c1)OCCO2)NS(=O)(=O)C1CCCCC1 came out at -6.71

Just so you know, measured Percent Effect for O=C(Cc1ccccc1F)N1CCN(C(=O)c2ccoc2)CC1 came out at -2.04

Just so you know, measured Percent Effect for N#CCCN(C(=O)CN1CCCC1Cc1ccccc1)c1ccccc1 (centres undefined) came out at 4.1

Just so you know, measured Percent Effect for Cn1c(Cn2ccnc2)nnc1C1CCCN(C2CCCCC2)C1 (centres undefined) came out at 1.93

Just so you know, measured Percent Effect for COC(=O)C(C)(C)NC(=O)C1CC(=O)N(C)C1 (centres undefined) came out at 2.78

Just so you know, measured Percent Effect for COC(=O)c1sccc1S(=O)(=O)N1CCC(Oc2ncccc2Cl)CC1 came out at 4.9

Just so you know, measured Percent Effect for CCNc1cc2c(nn1)CCN(C(=O)CC1CCCCC1)C2 came out at 1.42

Just so you know, measured Percent Effect for CCN(CC)CCNC(=O)c1cc(C(C)C)nc(N2CCCC2)n1 came out at 2.55

Just so you know, measured Percent Effect for CCN(CCn1cccn1)Cc1nc(-c2ccccc2F)oc1C came out at -0.68

Just so you know, measured Percent Effect for CCNc1cc2c(nn1)CCN(C(=O)c1ccnc(N(C)C)c1)C2 came out at 9.21

Just so you know, measured Percent Effect for CCOCC(=O)N1CCC(Oc2ccc(C(F)(F)F)cn2)CC1 came out at -5.42

Just so you know, measured Percent Effect for CNC(=O)C1CCN(C(=O)CCn2cccn2)CC1 came out at -4.92

Just so you know, measured Percent Effect for NC(=O)c1cc(C2CCCN(C(=O)CCc3cscn3)C2)n[nH]1 (centres undefined) came out at 1.69

Just so you know, measured Percent Effect for c1csc(-c2nc(CN3CCOC(Cn4cncn4)C3)co2)c1 (centres undefined) came out at -0.0943

Just so you know, measured Percent Effect for COc1ccc(CN2CCn3c(CNS(C)(=O)=O)nnc3C2)cc1 came out at -16.5

Just so you know, measured Percent Effect for O=C(NCCCN1CCCC1=O)Nc1ccc(Br)cc1Cl came out at 3.14

----------
ASSAYED_TARGET: Chromo domain-containing protein 1 (Saccharomyces cerevisiae (strain ATCC 204508 / S288c) (Baker's yeast))
TEST_DETAILS: ScCHD-1 Enzyme Inhibition Assay; further: in the data most compounds retested in dose-response had high values
Type: functional
Set-up: scale not given: direction of the effect not stated beside the values
REPORTED_CONDITIONS: 30 µM
RESULT_TYPE: Percent Effect (%)
Your answer is read as %, so omit the unit and give the number.

Just so you know, measured Percent Effect for Cn1cc(C[C@H]2[C@@H](O)CCN2C(=O)C2CC=CC2)cn1 came out at -9.76

Just so you know, measured Percent Effect for COc1ccccc1OCCN1CCCC(c2noc(C3CC3)n2)C1 (centres undefined) came out at -4.48

Just so you know, measured Percent Effect for CSc1ccc(NS(=O)(=O)c2cnn(C)c2)cn1 came out at -2.22

Just so you know, measured Percent Effect for CC(NC(=O)NCCCN(C)C)c1ccc2c(c1)CCC(=O)N2 (centres undefined) came out at -6.2

Just so you know, measured Percent Effect for CC(C)(C)C(=O)N1CCC2(COCc3cnc(N4CCOCC4)nc32)C1 (centres undefined) came out at -1.68

Just so you know, measured Percent Effect for N#Cc1ccc(C(=O)N2CCn3c(Cn4cccn4)cnc3C2)cc1 came out at -3.56

Just so you know, measured Percent Effect for CCn1cnnc1C1CCN(C(=O)c2cc3c(s2)CCC3)CC1 came out at -4.66

Just so you know, measured Percent Effect for CCc1nc2n(n1)CC(NCc1ncc(-c3ccccc3)o1)CC2 (centres undefined) came out at -5.56

Just so you know, measured Percent Effect for Cn1ccnc1CN1CCN(CC(O)c2ccco2)CC1 (centres undefined) came out at -4.92

Just so you know, measured Percent Effect for Cc1csc(N2CCN(C(=O)CCNc3ncccn3)CC2)n1 came out at -9.84

Just so you know, measured Percent Effect for O=C(NCc1ccco1)[C@H]1C[C@H]2OCC[C@H]2N(S(=O)(=O)C2CC2)C1 came out at -8.9

Just so you know, measured Percent Effect for NC(=O)c1csc(C(=O)N2CCCCC2Cn2cccn2)c1 (centres undefined) came out at 1.19

Just so you know, measured Percent Effect for O=C(c1ccsc1)N1CCOC2(CCN(Cc3cccnc3)CC2)C1 came out at -6.25

Just so you know, measured Percent Effect for CN(Cc1ccco1)Cc1ccccc1CNC(=O)c1ccncc1 came out at -2.3
